Test system: SK-MEL-28 melanoma
Assay: NCI-60 one-dose screen, 48 h (100 = growth as untreated, 0 = no growth, -100 = all killed)
Conditions: 10 µM unless noted
Compounds without any hit were thinned out: in the full panel of roughly 83,000, 20% have a hit.
Would you kindly list growth for each of these molecules?
The reply should be a number in %, with the unit left off.

Req: Record CC(c1ccccc1)N(C)C (centres undefined) : what is its growth with SK-MEL-28 melanoma?
Resp: 157

Req: What do you get for CCN(CC)CCCC(C)NC(=S)N/N=C(\C)c1ccccn1 (centres undefined) ?
Resp: 67.5

Req: Moving on to the next molecule: COc1ccc(Nc2cc(Cl)ccc2C(=O)O)cn1
Resp: 98.8

Req: # repeat for CCCCCCCCCCCCCCCCCC(=O)NCCNC(=O)CCCCCCCCCCCCCCCCC
Resp: 105

Req: Another molecule: N#CC1(O)CCCCC1
Resp: 109

Req: Follow-up entry: Cc1[nH]nc(C(N)=O)c1[N+](=O)[O-]
Resp: 93.2

Req: Same lookup for c1ccc2[nH]c(Cc3nc4ccccc4[nH]3)nc2c1 , please.
Resp: 94.3

Req: Then this molecule: OCCNc1ccccc1
Resp: 107

Req: Subsequent entry: CC(C)Sc1ncnc2nc[nH]c12
Resp: 82.8

Req: Next molecule: CC(=O)CSc1ncnc2nc[nH]c12
Resp: 82.3

Req: Here is the next molecule: CC(C)OCC(CCl)OC(=O)Nc1ccccc1 (centres undefined)
Resp: 111

Req: Check N#Cc1ccc(OC(=O)Nc2c(Cl)cc(Cl)cc2Cl)cc1 too.
Resp: 104

Req: Would you kindly repeat that for CCCCCCCCCCC(=O)CCCCCCCCCC ?
Resp: 106

Req: Same question for CC1(c2ccccc2)CO1 (centres undefined) please.
Resp: 105

----------
Tested on: M14 melanoma
Test: NCI-60 one-dose screen, 48 h (100 = growth as untreated, 0 = no growth, -100 = all killed)
Details: 10 µM unless noted
Protocol: Growth inhibition of the M14 human tumor cell line is measured as a screen for anti-cancer activity. Cells are grown in 96 well plates and exposed to the test compound for 48 hours. Compounds are tested at a single concentration, which is 10^-5 M for most compounds. The reported endpoint is percent growth (GI% or GIPRCNT), where numbers from 0 - 100% represent growth inhibition, and numbers from -100% - 0 represent cell death. For example, a value of 40 represents 60% growth inhibition. […]
The panel holds about 83,000 compounds, 20% with a hit somewhere; the sample as a whole holds those more often.
result type: growth (%)
Record the value in %, omitting the unit from your answer.

Req: Which growth value belongs to CC(C)Sc1ncnc2nc[nH]c12 ?
Resp: 105

Req: Same read-out for NC(=O)NCCO ?
Resp: 107

Req: Please do the same for O=C(Nc1ccc([N+](=O)[O-])cc1)C(=O)Nc1ccc([N+](=O)[O-])cc1 as well.
Resp: 104

Req: Consider next the molecule COC1OC(C(O)C(O)CO)C(O)C(O)C1O (stereo not drawn) in the same way.
Resp: 97.4

Req: Request: COC1OC(COC(C)=O)C(OC(C)=O)C(OC(C)=O)C1OC(C)=O (stereo not drawn)
Resp: 104

Req: And CCOP(=O)(NC(c1ccccc1)c1ccccc1)OCC ?
Resp: 105

Req: Now give it for O=c1cc(C(F)(F)F)[nH]c(=S)[nH]1 too.
Resp: 108

Req: Here is the next molecule: COC1OC(CO)C(OC)C(O)C1O (stereo not drawn)
Resp: 103

Req: Same for O=c1n(CC2CO2)c(=O)n(CC2CO2)n1CC1CO1 (stereo not drawn)
Resp: 48.1

Req: Note, next up: COc1ccc(C(=O)C(=O)c2ccccc2)cc1
Resp: 106

Req: Item: Cc1c(-c2ccc(C3CCCCC3)cc2)nc2ccc(F)cc2c1C(=O)O
Resp: 47.9

Req: What do you have for OC(CBr)CCBr (stereo not drawn) ?
Resp: 104

Req: Record: Cc1ccccc1NC(=O)Oc1ccc(Cl)cc1C(=O)c1ccccc1
Resp: 103
